B1: Azoarcus group I ribozyme (parent)
chain: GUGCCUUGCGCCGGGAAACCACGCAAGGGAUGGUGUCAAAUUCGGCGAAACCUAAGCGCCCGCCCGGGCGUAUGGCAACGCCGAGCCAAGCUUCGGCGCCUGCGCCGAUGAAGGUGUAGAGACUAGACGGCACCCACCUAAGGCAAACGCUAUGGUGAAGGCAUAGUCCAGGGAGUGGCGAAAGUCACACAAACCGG

Variants of: B1
Experiment: reverse-splicing fitness (ratio to wild type); higher = more active; in vitro selection; Mg2+ level not given
reverse-splicing fitness below 0.008 gives Not fulfilled; reverse-splicing fitness at or above it gives Fulfilled.

Example results:
• C82G A111G A120U A145G C150U C169U U176A = Not fulfilled
• C82U A111U A120G A145U C150G = Not fulfilled
• A111C A120U A145G C150G C169G U176C = Fulfilled

hey, is reverse-splicing fitness for this one >= 0.008? C82A A120U A145G U176A
Fulfilled
